Molecular target: human recombinant adrenergic α2B receptor (Homo sapiens, UniProt P18089)
Construct: expressed in transfected cells; host or cells: CHO-K1
Sequence (P18089 whole entry): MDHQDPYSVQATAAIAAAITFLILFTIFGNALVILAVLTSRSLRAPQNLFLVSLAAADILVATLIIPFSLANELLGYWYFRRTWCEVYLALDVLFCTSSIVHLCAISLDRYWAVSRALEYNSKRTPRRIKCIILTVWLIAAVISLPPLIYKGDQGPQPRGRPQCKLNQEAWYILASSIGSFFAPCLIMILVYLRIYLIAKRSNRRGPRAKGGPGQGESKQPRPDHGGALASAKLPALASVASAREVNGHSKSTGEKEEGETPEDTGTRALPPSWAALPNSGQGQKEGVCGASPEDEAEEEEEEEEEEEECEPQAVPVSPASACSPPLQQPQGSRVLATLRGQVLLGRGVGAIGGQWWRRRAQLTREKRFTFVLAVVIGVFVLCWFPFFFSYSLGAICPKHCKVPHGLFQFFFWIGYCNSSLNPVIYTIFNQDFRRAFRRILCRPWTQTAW
Assay: Radioligand binding, adrenergic α2B ([3H]Rauwolscine)
Details: read-out: Percentage inhibition of ligand binding, Adrenergic α2B (0.03 μM), compound at 0.03 μM; [3H]Rauwolscine; repeat datapoints each shown
OBSERVABLE: inhibition at 0.03 µM (%)

Here's what some known entries look like.
>>> print(df.to_string())
                                   compound             observable  u  observed_measurement
0  Cc1cnc2c(c1)c1c(n2CC(C)(O)c2ccc(C)nc2)CCN2CCCC12 (single isomer, unassigned) [148b]  inhibition at 0.03 µM  %                   105
1  Cc1ccc2c(c1)c1c(n2CC(OC(=O)N(C)C)c2ccncc2)CCN(C)C1 (stereo not drawn) [compound 141]  inhibition at 0.03 µM  %                    76
2  Cc1ccc2c(c1)c1c(n2CC(N)c2ccncc2)CCN(C)CC1 (single isomer, unassigned) [154b]  inhibition at 0.03 µM  %                    80
3  Cc1ccc2c(c1)c1c(n2CCc2ccc(C)nc2)CCN2CCCC12 (stereo not drawn) [197a]  inhibition at 0.03 µM  %                    81

I: Cc1ccc2c(c1)c1c(n2CC(C)(O)c2ccc(F)cc2)CCN2CCCC12 (single isomer, unassigned) [II-121a]
II: Cc1ccc2c(c1)c1c(n2CC(O)c2ccncc2C)CCN(C)C1 (stereo not drawn) [133a]
Exercise: Quick one: lower inhibition at 0.03 µM, I or II ? When you have decided, please share the label of that item.
Solution: II

Where these numbers come from: patent US8791132B2
